The reported numbers originate from patent EP0525686A1.

assay: Acute toxicity (LD50), tolerability; settings: in vivo; species and route not given
reported.property: LD50

>>> observed_value("COc1ccccc1NC(=O)CC(=O)C(C)C [Beispiel 1]")
"> 1000 mg/kg"
